target: Recombinant human TLR7 (Homo sapiens, UniProt Q9NYK1); construct: TLR7 in vector pUNO, blasticidin selection; assay: Human TLR7 assay (HEK293 SEAP reporter); conditions: degree of TLR7 activation; SEAP induction in HEK293 cells stably expressing recombinant human TLR7 and pNiFty2-SEAP reporter, overnight incubation at 37° C., 0.1% (v/v) DMSO
Sequence (Q9NYK1 27-1049): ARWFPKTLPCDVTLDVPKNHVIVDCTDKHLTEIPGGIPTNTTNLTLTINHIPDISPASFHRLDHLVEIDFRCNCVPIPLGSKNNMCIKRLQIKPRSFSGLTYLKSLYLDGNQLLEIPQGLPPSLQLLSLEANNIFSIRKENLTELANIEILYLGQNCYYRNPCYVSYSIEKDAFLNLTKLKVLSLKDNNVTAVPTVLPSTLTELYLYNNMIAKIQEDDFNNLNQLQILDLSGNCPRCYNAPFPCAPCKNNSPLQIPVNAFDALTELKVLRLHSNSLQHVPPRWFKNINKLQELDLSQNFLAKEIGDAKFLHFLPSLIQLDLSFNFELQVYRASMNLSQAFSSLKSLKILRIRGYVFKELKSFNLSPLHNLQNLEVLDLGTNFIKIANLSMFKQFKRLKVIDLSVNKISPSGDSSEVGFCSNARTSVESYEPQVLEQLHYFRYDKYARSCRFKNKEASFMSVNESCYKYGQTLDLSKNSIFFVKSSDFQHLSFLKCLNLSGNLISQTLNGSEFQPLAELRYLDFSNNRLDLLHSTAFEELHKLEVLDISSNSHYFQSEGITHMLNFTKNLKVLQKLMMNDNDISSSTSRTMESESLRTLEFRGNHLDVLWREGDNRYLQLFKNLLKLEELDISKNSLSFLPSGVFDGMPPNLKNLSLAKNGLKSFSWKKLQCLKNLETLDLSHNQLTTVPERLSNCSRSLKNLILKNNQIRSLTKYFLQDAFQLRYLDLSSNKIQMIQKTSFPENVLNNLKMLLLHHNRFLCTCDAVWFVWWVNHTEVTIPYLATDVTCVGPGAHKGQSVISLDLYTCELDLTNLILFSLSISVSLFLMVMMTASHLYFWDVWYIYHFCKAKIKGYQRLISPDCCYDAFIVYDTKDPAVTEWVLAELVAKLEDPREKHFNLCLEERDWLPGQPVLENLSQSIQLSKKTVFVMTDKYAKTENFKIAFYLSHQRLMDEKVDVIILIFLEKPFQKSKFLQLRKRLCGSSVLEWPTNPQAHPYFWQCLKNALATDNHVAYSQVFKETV
pEC50: −log10 of the molar value.
parameter-measured: pEC50

[[record]]
chem_smiles = "CCCCCNc1nc(N)nc(C)c1Cc1cccc(CN(C)C)c1"
target_or_system = "Recombinant human TLR7 (Homo sapiens, UniProt Q9NYK1)"
measured_value = 6.50

[[record]]
chem_smiles = "CCCCCNc1nc(N)nc(C)c1Cc1ccc(OCCCN2CCN(C)CC2)cc1OC"
target_or_system = "Recombinant human TLR7 (Homo sapiens, UniProt Q9NYK1)"
measured_value = 8.20

[[record]]
chem_smiles = "CCCCCNc1nc(N)nc(C)c1Cc1ccccc1OCC"
target_or_system = "Recombinant human TLR7 (Homo sapiens, UniProt Q9NYK1)"
measured_value = 6.50


(A) CCCCCNc1nc(N)nc(C)c1Cc1ccccc1OCCCN(C)C
(B) CCCCCNc1nc(N)nc(C)c1Cc1ccc(CCCN(C)C)cc1
**Query** Hi team, can someone confirm which has the larger pEC50: A or B ? Thanks. Select an item and report its label.
**Result** B

###

molecular target: Recombinant human TLR7 (Homo sapiens); construct: TLR7 in vector pUNO, blasticidin selection; experiment: Human TLR7 assay (HEK293 SEAP reporter); settings: degree of TLR7 activation; SEAP induction in HEK293 cells stably expressing recombinant human TLR7 and pNiFty2-SEAP reporter, overnight incubation at 37° C., 0.1% (v/v) DMSO
pEC50: −log10 of the molar value.
parameter-measured: pEC50

Completed entries (count: 3):
[[record]]
chem_smiles = "CCCCCNc1nc(N)nc(C)c1Cc1ccc(OCCCN(C)C)cc1C"
parameter_measured = "pEC50"
measured_value = 6.60

[[record]]
chem_smiles = "CCCCCNc1nc(N)nc(C)c1Cc1ccc(OCCN(C)Cc2ccccc2)cc1"
parameter_measured = "pEC50"
measured_value = 6.20

[[record]]
chem_smiles = "CCC[C@@H](CO)Nc1nc(N)nc(C)c1Cc1ccc(CO)cc1OC"
parameter_measured = "pEC50"
measured_value = 7.70


(A) COC(=O)Cc1cccc([C@@H](CCO)Nc2nc(N)nc(C)c2Cc2ccc(OCCCN(C)C)cc2OC)c1
(B) CCCCCNc1nc(N)nc(C)c1Cc1ccc(C#CCN(C)C)cc1
**Query** Pick one: A or B . Which one has the lower reported pEC50? Select an item and report its label.
**Result** A
(A: 6.50, B: 7.00)

###

target: Recombinant human TLR7 (Homo sapiens, UniProt Q9NYK1); construct: TLR7 in vector pUNO, blasticidin selection; assay: Human TLR7 assay (HEK293 SEAP reporter); conditions: degree of TLR7 activation; SEAP induction in HEK293 cells stably expressing recombinant human TLR7 and pNiFty2-SEAP reporter, overnight incubation at 37° C., 0.1% (v/v) DMSO
parameter-measured: EC50 (nM)

(a) CCCCCNc1nc(N)nc(C)c1Cc1ccc(OCCCN2CCOCC2)cc1OC
(b) CCCCCNc1nc(N)nc(C)c1Cc1ccc(C(=O)OC)cc1OC
(c) CCCCCNc1nc(N)nc(C)c1Cc1ccc(OCCCO)cc1
(d) CCCCCNc1nc(N)nc(C)c1Cc1ccccc1O
**Query** Using the recorded EC50, list the entries above from smallest to largest. List the labels according to the requested ordering.
**Result** a, b, d, c
(a: 7.94 nM, b: 63.1 nM, d: 126 nM, c: 501 nM)

(P) CCCCCNc1nc(N)nc(C)c1Cc1ccc(O)cc1
(Q) CCCCCNc1nc(N)nc(C)c1Cc1cc(C(=O)OC)ccc1F
**Query** Hi team, can someone confirm which has the larger EC50: P or Q ? Thanks. Select an item and report its label.
**Result** Q

###

target: Recombinant human TLR7 (Homo sapiens, UniProt Q9NYK1); construct: TLR7 in vector pUNO, blasticidin selection; assay: Human TLR7 assay (HEK293 SEAP reporter); conditions: degree of TLR7 activation; SEAP induction in HEK293 cells stably expressing recombinant human TLR7 and pNiFty2-SEAP reporter, overnight incubation at 37° C., 0.1% (v/v) DMSO
pEC50: −log10 of the molar value.
parameter-measured: pEC50

[[record]]
chem_smiles = "CCCCCNc1nc(N)nc(C)c1Cc1ccccc1OC"
parameter_measured = "pEC50"
measured_value = 7.20


(I) CCCCCNc1nc(N)nc(C)c1Cc1cccc(OCCCN(C)C)c1
(II) CCCCCNc1nc(N)nc(C)c1Cc1cc(C(=O)OC)ccc1OC
(III) CCCCCNc1nc(N)nc(C)c1Cc1ccc(CCCCN(C)C)cc1OC
(IV) CCCCCNc1nc(N)nc(C)c1Cc1cccc(CCCN(C)C)c1
**Query** Would you mind ranking these molecules by ascending pEC50? List the labels according to the requested ordering.
**Result** I, IV, II, III
(I: 6.10, IV: 6.60, II: 7.30, III: 8.40)

###

molecular target: Recombinant human TLR7 (Homo sapiens); construct: TLR7 in vector pUNO, blasticidin selection; assay: Human TLR7 assay (HEK293 SEAP reporter); settings: degree of TLR7 activation; SEAP induction in HEK293 cells stably expressing recombinant human TLR7 and pNiFty2-SEAP reporter, overnight incubation at 37° C., 0.1% (v/v) DMSO
parameter-measured: EC50 (nM)

Completed entries (count: 4):
[[record]]
molecule = "CCC[C@@H](CO)Nc1nc(N)nc(C)c1Cc1ccc(C(=O)OC)cc1OC [Example 13]"
parameter_measured = "EC50"
measured_value = 100

[[record]]
molecule = "COC(=O)Cc1cccc([C@@H](CCO)Nc2nc(N)nc(C)c2Cc2ccc(OCCCN(C)C)cc2)c1 [Example 34]"
parameter_measured = "EC50"
measured_value = 2000

[[record]]
molecule = "CCCCCNc1nc(N)nc(C)c1Cc1ccc(OC)cc1 [Example 1]"
parameter_measured = "EC50"
measured_value = 2000

[[record]]
molecule = "CCCCCNc1nc(N)nc(C)c1Cc1ccc(OCCN2CCCCC2)cc1 [Example 5]"
parameter_measured = "EC50"
measured_value = 126


(P) CCCCCNc1nc(N)nc(C)c1Cc1cccc(OC)c1 [Example 23]
(Q) CCCCCNc1nc(N)nc(C)c1Cc1ccc(OCCN2CCCC2)cc1 [Example 6]
(R) CCCC[C@@H](CCO)Nc1nc(N)nc(C)c1Cc1ccc(C(=O)OC)cc1OC [Example 14]
(S) CCCCCNc1nc(N)nc(C)c1Cc1cccc(OCCN2CCCCC2)c1 [Example 26]
(T) CCCCCNc1nc(N)nc(C)c1Cc1ccc(OCCCO)cc1OC [Example 36]
**Query** Would you mind ranking these molecules by ascending EC50? List the labels according to the requested ordering.
**Result** R, T, Q, S, P
